Taken from ChEMBL document CHEMBL2150863.

Recorded MIC by entry
System: Bacillus subtilis
assay_details: Antibacterial activity against Bacillus subtilis MTCC 441 after 24 hrs by tube dilution method
Format: functional
setup_conditions: MTCC 441, 24 h
endpoint_label: MIC (µg/mL)

{"compound": "O=C1N=C(C2C(=O)c3ccccc3C2=O)CC(c2ccccc2[N+](=O)[O-])N1 (stereo not drawn)", "tested_target": "Bacillus subtilis", "recorded_number": 250}
{"compound": "O=C1N=C(C2C(=O)c3ccccc3C2=O)CC(c2ccccc2O)N1 (stereo not drawn)", "tested_target": "Bacillus subtilis", "recorded_number": 250}
{"compound": "CC1(C)S[C@@H]2[C@H](NC(=O)[C@H](N)c3ccccc3)C(=O)N2[C@H]1C(=O)O", "tested_target": "Bacillus subtilis", "recorded_number": 3.9}

----------
Tested on: Rattus norvegicus
assay_details: Antiinflammatory activity in rat assessed as inhibition of carrageenan-induced paw edema at 10 mg/kg, po administered 30 mins prior to carrageenan-challenge after 3 hrs relative to vehicle-treated control
Assay type: functional
Lab note: anything with inhibition in vivo at 10 mg/kg at or over 30% counts as 1.0; the rest go in 0.0.

{"compound": "O=C1N=C(C2C(=O)c3ccccc3C2=O)CC(c2ccccc2[N+](=O)[O-])N1 (stereo not drawn)", "tested_target": "Rattus norvegicus", "class_name": 0.0}
{"compound": "COc1ccc(C2CC(C3C(=O)c4ccccc4C3=O)=NC(=O)N2)cc1 (stereo not drawn)", "tested_target": "Rattus norvegicus", "class_name": 0.0}
{"compound": "O=C1N=C(C2C(=O)c3ccccc3C2=O)CC(c2ccco2)N1 (stereo not drawn)", "tested_target": "Rattus norvegicus", "class_name": 0.0}
{"compound": "O=C1N=C(C2C(=O)c3ccccc3C2=O)CC(c2ccc(Cl)cc2)N1 (stereo not drawn)", "tested_target": "Rattus norvegicus", "class_name": 1.0}
{"compound": "O=C1N=C(C2C(=O)c3ccccc3C2=O)CC(/C=C/c2ccccc2)N1 (stereo not drawn)", "tested_target": "Rattus norvegicus", "class_name": 0.0}
{"compound": "O=C1N=C(C2C(=O)c3ccccc3C2=O)CC(c2ccccc2)N1 (stereo not drawn)", "tested_target": "Rattus norvegicus", "class_name": 0.0}
{"compound": "CN(C)c1ccc(C2CC(C3C(=O)c4ccccc4C3=O)=NC(=O)N2)cc1 (stereo not drawn)", "tested_target": "Rattus norvegicus", "class_name": 0.0}
{"compound": "O=C1N=C(C2C(=O)c3ccccc3C2=O)CC(c2c[nH]c3ccccc23)N1 (stereo not drawn)", "tested_target": "Rattus norvegicus", "class_name": 0.0}
{"compound": "O=C1N=C(C2C(=O)c3ccccc3C2=O)CC(c2ccccc2O)N1 (stereo not drawn)", "tested_target": "Rattus norvegicus", "class_name": 0.0}
{"compound": "O=C1N=C(C2C(=O)c3ccccc3C2=O)CC(c2ccc([N+](=O)[O-])cc2)N1 (stereo not drawn)", "tested_target": "Rattus norvegicus", "class_name": 0.0}
{"compound": "COc1cc(C2CC(C3C(=O)c4ccccc4C3=O)=NC(=O)N2)ccc1O (stereo not drawn)", "tested_target": "Rattus norvegicus", "class_name": 0.0}
{"compound": "O=C1N=C(C2C(=O)c3ccccc3C2=O)CC(c2cccc([N+](=O)[O-])c2)N1 (stereo not drawn)", "tested_target": "Rattus norvegicus", "class_name": 0.0}
{"compound": "COc1ccc2c(c1)c(CC(=O)O)c(C)n2C(=O)c1ccc(Cl)cc1 [INDOMETHACIN]", "tested_target": "Rattus norvegicus", "class_name": 1.0}
